system: SN12C renal; test: NCI-60 one-dose screen, 48 h (100 = growth as untreated, 0 = no growth, -100 = all killed); conditions: 10 µM
This is part of a sample that, as a whole, favours compounds with a hit. Of some 83,000 tested, about 20% had one in any assay.
Answer each item with its documented growth.
Give bare numbers, in %.

Would you be so kind as to report growth for each listed record?
1. O=[P@@]1(c2ccccc2)O[C@H](COCc2ccccc2)[C@@H](OCc2ccccc2)[C@H](OCc2ccccc2)[C@H]1O
2. Cn1c(N)c(N=Nc2ccc(S(=O)(=O)Nc3nccs3)cc2)c(=O)n(C)c1=O

output:
1. 82.9
2. 97

Would you be so kind as to report growth for each listed record?
1. COc1cc(-c2cc(C(=O)N3CCN(C(=O)c4ccccc4NCc4ccco4)CC3)nc3cc(-c4ccccc4)nn23)cc(OC)c1OC
2. Cc1ccc(NC(=O)Nc2cccnc2)cc1NC(=O)Nc1cccnc1

output:
1: 44.4; 2: 92

Would you be so kind as to report growth for each listed record?
1. COc1cc(Cl)cc(-c2nn(-c3cccc(NC(=O)Nc4ccc(Cl)c(Cl)c4)c3)cc2-c2ccncc2)c1
2. O=C(NN1C(=O)CSC1c1ccc(Cl)cc1)c1cccnc1 (centres undefined)
3. Oc1[nH]c2cc(Cl)ccc2c1/C=c1/ccc2c(c1)N=C(c1cc(F)cc(F)c1)N=2

output:
[15.5, 131, 64]

Would you be so kind as to report growth for each listed record?
1. COc1ccc(-c2nn(-c3cccc(NC(=O)c4ccc(N5CCOCC5)c(C(F)(F)F)c4)c3)cc2-c2ccncc2)cc1Cl
2. Cc1cccc(NC2=C(C#N)C(=O)NC3(CCCC3)S2)c1

output:
[85.2, 97.3]

====

tested on: ACHN renal; test: NCI-60 one-dose screen, 48 h (100 = growth as untreated, 0 = no growth, -100 = all killed); settings: 10 µM
The panel holds about 83,000 compounds, 20% with a hit somewhere; the sample as a whole holds those more often.
Classify by measured growth: class 1 if it is equal to or exceeds 40%, class 0 if it is smaller.

COc1cc(Nc2ncnc(Nc3ccc4c(n3)NC(=O)C(C)(C)O4)n2)cc(OC)c1OC | class 0
CN1c2ccccc2[C@]2(Cc3ccccc3)Cc3ccccc3N[C@H]12 | class 1
O=C1OCC2=C1C(c1cccc(Cl)c1)c1cc3c(cc1N2CCO)OCO3 (configuration not stated) | class 1
Fc1ccc2nc(-c3nc(-c4ccccc4)n4ccccc34)[nH]c2c1 | class 0
CCOC(=O)N/N=C\C(C)=N\NC(=O)OCC | class 1
Nc1cc2c(cc1Cl)-c1ccc([N+](=O)[O-])cc1/C2=N\O | class 1
COc1cc(C(=O)N2CCN(c3ccccc3OC)CC2)c(N)cc1OCCCN1CCN(c2ccccc2OC)CC1 | class 1
COc1ccc(-c2nc(-c3nc4ccc(OC)cc4[nH]3)cc3c2[nH]c2ccccc23)cc1 | class 0

input: Could you tell me if the measured growth of CC(C)=CCc1cc(O)cc2c1OC(C=C(C)C)C1=C2C(=O)C2=C(NCCS2(=O)=O)C1=O (configuration not stated) reaches 40% or more?
output: class 0

input: Could you tell me if the measured growth of C#Cc1ccc(-n2c(/C=C/c3cc(OC)cc(OC)c3)nc3ncccc3c2=O)cc1 reaches 40% or more?
output: class 1

input: Could you tell me if the measured growth of O=C1OCC2=C1C(c1cccc(Br)c1)c1cc3c(cc1N2CCO)CCC3 (configuration not stated) reaches 40% or more?
output: class 0

input: Could you tell me if the measured growth of COC(=O)c1c(-c2ccccc2)csc1NC(=O)c1c(-c2ccccc2)noc1C reaches 40% or more?
output: class 0

input: Could you tell me if the measured growth of COc1ccc(-c2nc(-c3nc4cc(Cl)c(F)cc4[nH]3)c3ccccn23)cc1 reaches 40% or more?
output: class 1
